Tested on: CA1 pyramidal cells
Assay: Electrophysiological recordings in rat hippocampal slices
Assay type: cell-based
Conditions: read-out: Spontaneous firing rate of CA1 pyramidal cells EC50
PROPERTY: EC50
In your response, put the unit directly after the numeric value.

// query EC50 value for entry "CCOC(=O)N1CCC[C@H](N2CCC(C(=O)NC3(C)CCC3)CC2)CC1" 1600 nM

---

Measured EC50 of individual entries
Biological target: human M1 receptor (Homo sapiens, UniProt P11229)
Construct: expressed in transfected cells
Sequence (P11229 whole entry): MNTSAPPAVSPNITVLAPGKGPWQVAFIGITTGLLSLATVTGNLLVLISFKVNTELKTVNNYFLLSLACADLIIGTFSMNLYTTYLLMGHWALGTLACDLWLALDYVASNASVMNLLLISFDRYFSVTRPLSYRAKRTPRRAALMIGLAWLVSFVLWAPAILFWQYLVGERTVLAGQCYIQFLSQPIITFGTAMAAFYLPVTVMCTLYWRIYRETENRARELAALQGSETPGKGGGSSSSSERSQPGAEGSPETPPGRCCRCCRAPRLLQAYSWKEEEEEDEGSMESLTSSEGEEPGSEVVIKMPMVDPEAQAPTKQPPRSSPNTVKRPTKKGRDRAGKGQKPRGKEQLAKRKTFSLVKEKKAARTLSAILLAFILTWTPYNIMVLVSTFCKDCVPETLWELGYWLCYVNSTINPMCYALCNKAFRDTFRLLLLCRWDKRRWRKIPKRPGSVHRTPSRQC
Test: M1-receptor functional agonist assays (pERK1/2 and calcium mobilisation) for hits and SAR
Type: cell-based
Conditions: SAR, Table S4; read-out: M1-receptor agonist activity EC50
Write the answer as a number in nM, unit excluded.

> print(dat)
                                   compound  property  units.symbol  test.result
1  CCOC(=O)N1CCC(N2CCC(C(=O)NCC(C)C)CC2)CC1 [Compound 5]      EC50            nM          316

Now take the following compound into account.
Report EC50 for CCOC(=O)N1CCC[C@@H](N2CCC(C(=O)NC3(C)CCC3)CC2)CC1 [(R)-Compound 7] please. 398
